Collected TGI values appear next to each entry.
system: M14 melanoma; assay: NCI tumour cell line growth inhibition, 48 h

The following compounds have reported results that may help.
[Q] Supply TGI value. Item: `CCOS(=O)(=O)c1ccc(-c2c3nc(c(-c4ccc(S(=O)(=O)OCC)cc4)c4ccc([nH]4)c(-c4ccc(S(=O)(=O)OCC)cc4)c4nc(c(-c5ccc(S(=O)(=O)OCC)cc5)c5ccc2[nH]5)C=C4)C=C3)cc1`
[A] > 31.6 µM

[Q] Supply TGI value. Item: `COc1ccc2[nH]c3c(c2c1)CC(=O)N1CCC[C@H](C1)CC31OCCCO1`
[A] > 100 µM

[Q] Supply TGI value. Item: C=C1CCOC2(C(O)C(C)(O)CO)NC(=O)C1(O)NC2=O (stereo not given)
[A] > 100 µM

[Q] Supply TGI value. Item: `CSc1nnc(C(C#N)C#N)nn1`
[A] > 100 µM

Next up:
[Q] Supply TGI value. Item: `CSc1nc(NCc2ccccc2)c2cnn(COCCO)c2n1`
[A] > 100 µM

The measurements presented in this section are drawn from PubChem BioAssay (NCI).
